B1: CPEB3 Ribozyme (parent)
chain: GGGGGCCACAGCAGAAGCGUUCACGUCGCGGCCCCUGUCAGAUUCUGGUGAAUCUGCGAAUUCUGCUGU

variants of: B1; experiment: self-cleavage, relative activity (ratio to wild type); higher = more cleavage; co-transcriptional
testReadout: self-cleavage
# respond with the number and nothing more

Sample answers from the record:
mutantLabel | self-cleavage
A8G A42C | 0.59
G41C A42U | 0.504
U21A U67A | 0.992
C33A G56U | 0.756
A40U G65U | 0.405
C7G A51C | 0.306
C57U G65C | 0.374
G5U U49A | 0.316
C34A U53C | 0.565
A16U G19U | 0.164

## Input Data request, read-out self-cleavage, for G2C C29U
## Output 0.0639
